- target-system: Aryl hydrocarbon receptor (Homo sapiens)
- protocol-text: ATG_Ahr_CIS: Attagene CIS-FACTORIAL HepG2 Assay for human Aryl Hydrocarbon Receptor (Ahr) (AID 2282930)
- conditions: HepG2 AhR cis-factorial reporter transcription; actives raise or lower the signal
The source made the active and inactive calls. How the source made its calls: active means hit-call score of the fitted dose curve at least 0.9, where 1 is the maximum; inactive means score below 0.9.
Possible outcomes: T for active, F for inactive

> print(dat)
                                    compound  answer.label
 1                    FC(F)OCC(F)(F)C(F)(F)F             F
 2                       Oc1c(Cl)cc(Cl)cc1Cl             T
 3               C=CCOC(F)(C(F)(F)F)C(F)(F)F             F
 4                         CC(F)(F)CC(F)(F)F             F
 5                          Clc1cccc(Cl)c1Cl             F
 6  CC1(C)[C@H](C(=O)O[C@H](C#N)c2cccc(Oc3ccccc3)c2)[C@@H]1/C=C(\Cl)C(F)(F)F             F
 7                         CCOC(=O)Cc1ccccc1             F
 8                            CCOc1ccc(N)cc1             F
 9  CC(O)(CS(=O)(=O)c1ccc(F)cc1)C(=O)Nc1ccc(C#N)c(C(F)(F)F)c1 (stereo not given)             F
10  O=C(NC(=O)c1c(F)cccc1F)Nc1cc(Cl)c(OC(F)(F)C(F)C(F)(F)F)cc1Cl (stereo not given)             T
11                   Oc1ccc(Cc2ccc(O)cc2)cc1             F
12  O=c1[nH]c2ccccc2n1C1CCN(CCCC(c2ccc(F)cc2)c2ccc(F)cc2)CC1             F
13  CC(C)=CC1C(C(=O)OCc2cccc(Oc3ccccc3)c2)C1(C)C (stereo not given)             F
14                               CN(C)C(=S)S             F
15                    O=C/C(Cl)=C(/Cl)C(=O)O             F
16                      O=C(O)COc1ccc(Cl)cc1             F
17       O=[N+]([O-])c1cc([As](=O)(O)O)ccc1O             F
18                      Nc1ccc(-c2ccccc2)cc1             F
19             CN(N=O)c1ccc([N+](=O)[O-])cc1             T
20                    c1ccc2c(c1)Oc1ccccc1O2             T
21            CC1CC(=O)O1 (stereo not given)             F
22  CC(C=O)Cc1ccc2c(c1)OCO2 (stereo not given)             F
23  C#C[C@]1(O)CC[C@H]2[C@@H]3CCC4=CC(=O)CC[C@]4(C)[C@H]3CC[C@@]21C             F
24                 c1ccc2sc(SNC3CCCCC3)nc2c1             T
25       Brc1ccc(Oc2c(Br)cc(Br)cc2Br)c(Br)c1             F
26                         NC(=O)c1ccc(N)nc1             F
27       CCCCC(CC)C(=O)Cl (stereo not given)             F
28  C=CC(=O)[O][Sn]([CH2]CCC)([CH2]CCC)[CH2]CCC             T
29  CC(C)(C1CCC(O)CC1)C1CCC(O)CC1 (stereo not given)             F
30  Cc1c([N+](=O)[O-])c(C)c([N+](=O)[O-])c(C(C)(C)C)c1[N+](=O)[O-]             F
31       CCCCOC(=O)COC(=O)c1ccccc1C(=O)OCCCC             F
32  C#CCOC(=O)/C=C(C)/C=C/CC(C)CCCC(C)C (stereo not given)             F
33                            Clc1cccc(Cl)c1             F
34  CC(C)(c1ccc(O)c(-c2ccccc2)c1)c1ccc(O)c(-c2ccccc2)c1             F
35                   CC(C)(C#N)N=NC(C)(C)C#N             F
36  [F][Sn]([c]1ccccc1)([c]1ccccc1)[c]1ccccc1             T
37  CC(C)(c1ccccc1)c1cc(-n2nc3ccccc3n2)c(O)c(C(C)(C)c2ccccc2)c1             F
38              Cc1cccc(C)c1NC(=O)CN1CCCC1=O             F
39        CCN(CC)C(=O)C(Cl)=C(C)OP(=O)(OC)OC             F
40          CCOP(=S)(OCC)O/N=C(\C#N)c1ccccc1             T
41  CCCSP(=S)(OCC)Oc1ccc(SC)cc1 (stereo not given)             F
42                O=C(O)CC(O)(CC(=O)O)C(=O)O             F
43    c1cc[c]([Sb]([c]2ccccc2)[c]2ccccc2)cc1             F
44                        C1CCC(C2CCCCC2)CC1             F
45                     CCCCOP(=O)(CCCC)OCCCC             F
46  COC(=O)c1cc(Oc2ccc(Cl)cc2Cl)ccc1[N+](=O)[O-]             T
47                          OC[P+](CO)(CO)CO             F
48                         CC(C)(C)c1ccccc1O             F
49           O=S(=O)(C(Cl)(Cl)Cl)C(Cl)(Cl)Cl             F
50           O=[N+]([O-])c1ccc(Nc2ccccc2)cc1             F
